Target: T1, Human CD228 protein (human, UniProt P08582 20-708, limits assumed)
T1 construct: Recombinant protein made in CHO cells, purified over a Ni column; The printed entry begins with the leader (MRGPSG...) and ends with ten His; also called hCD228; CD228-His protein
T1 sequence: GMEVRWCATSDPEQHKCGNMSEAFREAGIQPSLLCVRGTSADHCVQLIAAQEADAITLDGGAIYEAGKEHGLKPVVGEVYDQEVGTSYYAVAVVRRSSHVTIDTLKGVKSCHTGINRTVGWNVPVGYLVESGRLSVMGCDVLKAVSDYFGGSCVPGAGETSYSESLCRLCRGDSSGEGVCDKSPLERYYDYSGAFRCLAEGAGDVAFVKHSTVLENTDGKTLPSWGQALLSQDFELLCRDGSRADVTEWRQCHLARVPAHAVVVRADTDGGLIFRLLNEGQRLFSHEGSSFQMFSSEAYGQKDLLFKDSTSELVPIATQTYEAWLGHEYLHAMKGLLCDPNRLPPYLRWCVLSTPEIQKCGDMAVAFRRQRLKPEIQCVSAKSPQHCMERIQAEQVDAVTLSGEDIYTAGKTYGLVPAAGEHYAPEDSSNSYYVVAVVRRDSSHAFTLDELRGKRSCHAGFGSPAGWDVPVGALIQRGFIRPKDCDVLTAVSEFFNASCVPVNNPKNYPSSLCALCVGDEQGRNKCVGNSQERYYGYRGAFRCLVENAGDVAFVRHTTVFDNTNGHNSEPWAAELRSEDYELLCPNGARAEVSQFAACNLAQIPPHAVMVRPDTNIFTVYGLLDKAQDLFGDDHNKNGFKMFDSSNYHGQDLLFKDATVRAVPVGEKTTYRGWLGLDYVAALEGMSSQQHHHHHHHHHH
Assay: Octet competition on His-chip CD228; competitor: BA352
Octet response value values for the binders below.
Kindly provide the number alone.

Some entries whose results are on file:
CA13 (antibody, human IgG1, kappa, V domains shown, Intact IgG1 from fully human antibody-transgenic mice) VH: EVQLVESGGGVVQPGRSLRLSCAASGFTFSSYAMHWVRQAPGKGLEWVAVISYDGSNKYYADSVKGRFTISRDNSKNTLFLQMNSLRAEDTAVYYCARDVYHYGSRSPYYYGMDVWGQGTTVTVSS VL: DIVMTQSPSSLSASVGDRVTITCRASQGISNYLAWFQQKPGKVPKLLIYAASTLQSGVPSRFSGSGSGTDFTLTISSLQPEDVATYYCQKYNSAPFTFGPGTKVDIKR	0.427
CA149 (antibody, human IgG1, kappa, V domains shown, Intact IgG1; also called CA149 antibody) VH: EVQLVESGGGVVQPGRSLRLSCAASGFTFSSYAMHWVRQAPGKGLEWVAVISFDGSNKYYTDSVKGRFTISRDNSKNTLYLQMNSLRAEDTAVYYCAREVPYYYGSGPFDYWGQGTLVTVSS VL: EIVLTQSPATLSVSPGERATLSCRASQSVSSNLAWYQQKPGQAPRHLIDGASSRASGIPDRFSGSGSGTDFTLTISRLEPEDFAVYYCQQYGSSPPFTFGPGTKVDIKR	0.442

Alright, here's another binder for you.
So, reference antibody hL49 (antibody, human IgG1, kappa, V domains shown, also called H149; hL49 analogy) VH: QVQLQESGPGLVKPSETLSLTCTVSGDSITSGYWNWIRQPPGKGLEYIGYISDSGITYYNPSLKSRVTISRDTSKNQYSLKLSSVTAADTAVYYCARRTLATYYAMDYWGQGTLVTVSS VL: DFVMTQSPLSLPVTLGQPASISCRASQSLVHSDGNTYLHWYQQRPGQSPRLLIYRVSNRFSGVPDRFSGSGSGTDFTLKISRVEAEDVGVYYCSQSTHVPPTFGQGTKLEIKR ? Its Octet response value was 0.177
